Provide the recorded Sampling time/Dissociation percent (%) 2 min for the entries that follow.
# PROCEDURE_SUMMARY: In vitro dissociation in blood plasma of rabbit
# Format: in vitro ADME, New Zealand white rabbits
# CONDITION_DETAILS: fresh New Zealand white rabbit plasma, 37° C., 2 min
One number for each entry, in %.

For every item in the list below, what is its measured Sampling time/Dissociation percent (%) 2 min?
1. CC(=O)O[C@H]1C(=O)[C@]23C[C@H]2C[C@H]2OC[C@@]2(OC(C)=O)[C@H]3[C@H](OC(=O)c2ccccc2)[C@]2(O)C[C@H](OC(=O)[C@H](OC(=O)[C@H](F)CC(C)N(C)C)[C@@H](NC(=O)OC(C)(C)C)c3ccccc3)C(C)=C1C2(C)C.Cl (stereo partly shown)
2. CC(=O)O[C@H]1C(=O)[C@@]2(C)[C@H]([C@H](OC(=O)c3ccccc3)[C@]3(O)C[C@H](OC(=O)[C@H](OC(=O)[C@@H](F)CCN(C)C)[C@@H](NC(=O)c4ccccc4)c4ccccc4)C(C)=C1C3(C)C)[C@]1(OC(C)=O)CO[C@@H]1C[C@@H]2O.CS(=O)(=O)O
3. CC(=O)O[C@@]12CO[C@@H]1C[C@H](O)[C@@]1(C)C(=O)[C@H](O)C3=C(C)[C@@H](OC(=O)[C@H](OC(=O)[C@@H](F)CCN(C)C)[C@@H](NC(=O)OC(C)(C)C)c4ccccc4)C[C@@](O)([C@@H](OC(=O)c4ccccc4)[C@H]21)C3(C)C.CS(=O)(=O)O
4. CO[C@H]1C(=O)[C@]2(C)[C@@H](OC)C[C@H]3OC[C@@]3(OC(C)=O)[C@H]2[C@H](OC(=O)c2ccccc2)[C@]2(O)C[C@H](OC(=O)[C@H](OC(=O)C(F)CCN(C)C)[C@@H](NC(=O)OC(C)(C)C)c3ccccc3)C(C)=C1C2(C)C.CS(=O)(=O)O (stereo partly shown)
5. CC(=O)O[C@@]12CO[C@@H]1CC[C@@]1(C)[C@@H]3O[C@H](CN(C)C)O[C@@H]3C3=C(C)[C@@H](OC(=O)[C@H](OC(=O)[C@H](F)CC(C)N(C)C)[C@@H](NC(=O)OC(C)(C)C)c4ncccc4F)C[C@@](O)([C@@H](OC(=O)c4ccccc4)[C@@H]12)C3(C)C.Cl (stereo partly shown)

1: 68.2; 2: 69.7; 3: 81.2; 4: 81.2; 5: 69.7

// for each compound in input: emit Sampling time/Dissociation percent (%) 2 min
1. CO[C@H]1C(=O)[C@]2(C)[C@@H](OC)C[C@H]3OC[C@@]3(OC(C)=O)[C@H]2[C@H](OC(=O)c2ccccc2)[C@]2(O)C[C@H](OC(=O)[C@H](OC(=O)[C@@H](F)CCN(C)C)[C@@H](NC(=O)OC(C)(C)C)c3ccccc3)C(C)=C1C2(C)C.Cl
2. CCN(C)C(C)C[C@H](CC(F)F)C(=O)O[C@@H](C(=O)O[C@H]1C[C@@]2(O)[C@@H](OC(=O)c3ccccc3)[C@@H]3[C@]4(OC(C)=O)CO[C@@H]4C[C@H](O)[C@@]3(C)C(=O)[C@H](O)C(=C1C)C2(C)C)[C@@H](NC(=O)OC(C)(C)C)c1ccccc1.Cl (stereo partly shown)

1. 89.9
2. 35.2

----------
# PROCEDURE_SUMMARY: In vitro dissociation in blood plasma of rabbit
# Assay type: in vitro ADME, New Zealand white rabbits
# CONDITION_DETAILS: fresh New Zealand white rabbit plasma, 37° C., 2 min
MEASURED_PARAMETER: Sampling time/Dissociation percent (%) 2 min
Answers are plain numbers, in %.

Here's what some known entries look like.
Sampling time/Dissociation percent (%) 2 min for CC(=O)O[C@@]12CO[C@@H]1C[C@H](O)[C@@]1(C)C(=O)[C@H](O)C3=C(C)[C@@H](OC(=O)[C@H](OC(=O)C(F)CCN(C)C)[C@@H](NC(=O)OC(C)(C)C)c4ccccc4)C[C@@](O)([C@@H](OC(=O)c4ccccc4)[C@H]21)C3(C)C.Cl (stereo partly drawn) ?
75.6

Okay, and CO[C@H]1C(=O)[C@]2(C)[C@@H](OC)C[C@H]3OC[C@@]3(OC(C)=O)[C@H]2[C@H](OC(=O)c2ccccc2)[C@]2(O)C[C@H](OC(=O)[C@H](OC(=O)[C@@H](CCN)C(F)F)[C@@H](NC(=O)OC(C)(C)C)c3ccccc3)C(C)=C1C2(C)C.O=S(=O)(O)O ?
48.9

Okay, next one:
Quick one: Sampling time/Dissociation percent (%) 2 min of CO[C@H]1C(=O)[C@]2(C)[C@@H](OC)C[C@H]3OC[C@@]3(OC(C)=O)[C@H]2[C@H](OC(=O)c2ccccc2)[C@]2(O)C[C@H](OC(=O)[C@H](OC(=O)[C@@H](F)CCN(C)C)[C@@H](NC(=O)OC(C)(C)C)c3ccccc3)C(C)=C1C2(C)C.CS(=O)(=O)O ?
85.6
